All figures here come from paper PMC8869731.

assayed.system: UniProt A0A0K1H2R6
Sequence (A0A0K1H2R6 entry or part of it): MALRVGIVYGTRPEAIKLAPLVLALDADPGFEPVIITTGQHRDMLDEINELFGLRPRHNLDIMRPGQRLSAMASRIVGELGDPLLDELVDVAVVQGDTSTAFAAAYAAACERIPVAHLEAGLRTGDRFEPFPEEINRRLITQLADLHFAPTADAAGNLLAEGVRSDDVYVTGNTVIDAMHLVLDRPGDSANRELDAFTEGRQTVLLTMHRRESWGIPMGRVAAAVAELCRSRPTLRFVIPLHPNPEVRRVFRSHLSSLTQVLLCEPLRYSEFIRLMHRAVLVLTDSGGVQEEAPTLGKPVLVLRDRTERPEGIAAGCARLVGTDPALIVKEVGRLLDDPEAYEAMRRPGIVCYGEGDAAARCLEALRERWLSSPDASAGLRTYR
protocol.summary: Isothermal titration calorimetry (ITC) of KasQ wild type versus substrates;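 further: titration of 1 mM substrate into 0.1 mM KasQ, 18 injections spaced 120 s, data fitted to a single-site binding model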
Assay type: binding
settings: ITC binding stoichiometry; KasQ wild type, 25 °C, 50 mM HEPES pH 8.0, 100 mM NaCl

# chem.smiles, n
data = [
    ("Cc1cn([C@H]2C[C@H](O)[C@@H](COP(=O)(O)OP(=O)(O)OP(=O)(O)O)O2)c(=O)[nH]c1=O", 1.1),
    ("O=c1ccn([C@@H]2O[C@H](COP(=O)(O)O)[C@@H](O)[C@H]2O)c(=O)[nH]1", 1.0),
    ("O=C(O)[C@H]1O[C@H](OP(=O)(O)OP(=O)(O)OC[C@H]2O[C@@H](n3ccc(=O)[nH]c3=O)[C@H](O)[C@@H]2O)[C@H](O)[C@@H](O)[C@@H]1O", 1.5),
    ("Cc1cn([C@H]2C[C@H](O)[C@@H](COP(=O)(O)OP(=O)(O)O[C@H]3O[C@H](CO)[C@@H](O)[C@H](O)[C@H]3O)O2)c(=O)[nH]c1=O", 0.3),
    ("CC(=O)N[C@H]1[C@@H](OP(=O)(O)OP(=O)(O)OC[C@H]2O[C@@H](n3ccc(=O)[nH]c3=O)[C@H](O)[C@@H]2O)O[C@H](CO)[C@H](O)[C@@H]1O", 1.8),
    ("O=c1ccn([C@@H]2O[C@H](COP(=O)(O)OP(=O)(O)O)[C@@H](O)[C@H]2O)c(=O)[nH]1", 1.0),
    ("O=c1ccn([C@@H]2O[C@H](COP(=O)(O)OP(=O)(O)OP(=O)(O)O)[C@@H](O)[C@H]2O)c(=O)[nH]1", 1.0),
]
